Test: NOVARTIS: Inhibition Frequency Index (IFI) - the number of HTS assays where a compound showed > 50% inhibition/induction, expressed as a percentage of the number of assays in which the compound was tested.
Assay type: functional
The full ranking holds about 5,400 compounds; the median of “IFI” is about 2, and the highest 2% start at about 22. The sample holds the highest values, similar compounds and a random draw of the others, so the mix is not that of the screen.
Output Criterion met for records whose IFI is lower than 7%, Criterion not met for records at or above 7%.

Here's what some known entries look like.
[[record]]
compound = "CCCCc1c(C)nc2c(OC)cccc2c1O"
class = "Criterion met"

[[record]]
compound = "Oc1c(C(Nc2ccccn2)c2cccc(Cl)c2Cl)ccc2cccnc12 (stereo not drawn)"
class = "Criterion not met"

[[record]]
compound = "C=CCSc1nc(N)c2c3c(sc2n1)CN(CCC)CC3"
class = "Criterion not met"

[[record]]
compound = "c1ccc(C2=NN(c3ccccc3)C(c3ccc4c(c3)OCO4)N2c2ccc(N3CCOCC3)cc2)cc1 (stereo not drawn)"
class = "Criterion not met"

[[record]]
compound = "Cc1occc1C(=O)NN=C/C(Cl)=C/c1ccccc1"
class = "Criterion not met"


Request: Is it true that IFI reported for C[n+]1c2ccccc2nc2ccc(NC3CCCCC3N)cc21 (stereo not drawn) is less than 7%?
Response: Criterion not met

Request: Is it true that IFI reported for COc1cc2nc(N3CCN(c4nc(N)c5cc(OC)c(OC)cc5n4)CC3)nc(N)c2cc1OC is less than 7%?
Response: Criterion not met

Request: Is it true that IFI reported for Cc1ccccc1C=NNc1nc2ccccc2[nH]1 is less than 7%?
Response: Criterion met

Request: Is it true that IFI reported for COc1ccc(C2(CNCC(O)c3cccc([N+](=O)[O-])c3)CCCC2)cc1OC (stereo not drawn) is less than 7%?
Response: Criterion met

Request: Is it true that IFI reported for Cc1ccc2ncnc(Nc3cccc(C(F)(F)F)c3)c2c1 is less than 7%?
Response: Criterion met
